TARGET OR SYSTEM: FAK recombinant protein (Homo sapiens (Human), UniProt Q05397)
Sequence (Q05397 whole entry): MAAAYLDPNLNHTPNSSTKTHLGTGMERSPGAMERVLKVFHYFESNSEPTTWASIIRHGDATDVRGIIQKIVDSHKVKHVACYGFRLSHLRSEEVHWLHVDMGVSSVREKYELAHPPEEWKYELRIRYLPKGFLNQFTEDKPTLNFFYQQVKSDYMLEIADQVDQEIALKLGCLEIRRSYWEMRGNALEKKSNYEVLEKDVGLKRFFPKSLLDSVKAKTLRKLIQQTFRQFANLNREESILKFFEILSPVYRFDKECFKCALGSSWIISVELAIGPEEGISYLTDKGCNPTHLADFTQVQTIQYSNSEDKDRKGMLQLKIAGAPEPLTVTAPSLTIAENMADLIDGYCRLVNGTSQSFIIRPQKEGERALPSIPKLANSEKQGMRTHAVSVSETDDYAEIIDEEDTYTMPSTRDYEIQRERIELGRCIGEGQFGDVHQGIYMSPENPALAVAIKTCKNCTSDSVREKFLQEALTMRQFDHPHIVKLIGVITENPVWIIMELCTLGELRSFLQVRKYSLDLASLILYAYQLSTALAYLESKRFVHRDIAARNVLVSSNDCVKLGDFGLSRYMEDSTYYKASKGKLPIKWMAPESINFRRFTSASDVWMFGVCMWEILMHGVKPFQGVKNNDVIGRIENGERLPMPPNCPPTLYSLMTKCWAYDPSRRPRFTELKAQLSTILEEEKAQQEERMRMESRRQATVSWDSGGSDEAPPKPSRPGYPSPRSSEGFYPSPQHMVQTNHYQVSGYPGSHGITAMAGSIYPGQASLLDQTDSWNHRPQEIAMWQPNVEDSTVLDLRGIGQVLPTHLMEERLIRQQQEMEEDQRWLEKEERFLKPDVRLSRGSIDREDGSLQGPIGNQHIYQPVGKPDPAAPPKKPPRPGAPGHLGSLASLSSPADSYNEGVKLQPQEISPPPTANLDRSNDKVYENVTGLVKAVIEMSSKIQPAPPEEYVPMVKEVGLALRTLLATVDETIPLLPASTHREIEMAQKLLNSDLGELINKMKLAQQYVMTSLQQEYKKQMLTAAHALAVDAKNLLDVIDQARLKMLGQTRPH
ASSAY EXPLANATION: Inhibitory activity against FAK enzyme (HTRF, TK substrate)
pIC50: −log10 of the molar value.
pIC50 values, listed per item

// solved cases for pIC50 follow
COc1cc(C(=O)NC2CC3(CCN(C)CC3)C2)c(F)cc1Nc1ncc(Cl)c(Oc2cccc3c2C(=O)N(C)C32CCCC2)n1 : > 7.70
CCc1cc(C(=O)NC2CC3(CCN(C)CC3)C2)ccc1Nc1ncc(C(F)(F)F)c(Oc2cccc3c2C(=O)N(C)C32CC2)n1 : > 7.70

Here is the next item to consider.
Param item = `COc1cc(C(=O)NC2CCC3(CC2)CN(C)C3)ccc1Nc1ncc(C(F)(F)F)c(Oc2cccc3c2C(=O)N(C)C32CC2)n1` ; retrieve measured pIC50.
> 7.70

---

ASSAY EXPLANATION: In vivo pharmacokinetic experiment in CD-1 mice
MEASUREMENT PARAMETERS: mouse, plasma; CD-1 female mice, oral administration, 5 mg/kg
RECORDED ENDPOINT: Cmax (µg/mL)
Numbers only here, please. The scale is µg/mL.

Param item = `COc1cc(N2CC3(CCN(C)CC3)C2)ccc1Nc1ncc(C(F)(F)F)c(Oc2cccc3c2C(=O)N(C)C32CC2)n1` ; retrieve measured Cmax.
0.201

---

Test system: Human prostate cancer PC3 cells
ASSAY EXPLANATION: In vivo efficacy, PC3 xenograft in nude mice
Parameters: species or system mouse
MEASUREMENT PARAMETERS: PC-3 model, 25 mg/kg, QD (21 days), PO
Values of TGI(%) strictly less than 70% map to MET, and values of at least 70% map to NOT MET.

COc1cc(N2CC3(CCN(C)CC3)C2)c(F)cc1Nc1ncc(Cl)c(Oc2cccc3c2C(=O)N(C)C32CC2)n1 : NOT MET
COc1cc(N2CC3(CCN(C)CC3)C2)c(F)cc1Nc1ncc(C(F)(F)F)c(Oc2cccc3c2C(=O)N(C)C32CC2)n1 : NOT MET
COc1cc(N2CC3(CCN(C)CC3)C2)ccc1Nc1ncc(C(F)(F)F)c(Oc2cccc3c2C(=O)N(C)C32CC2)n1 : NOT MET

Is TGI(%) of `COc1cc(C(=O)NC2CCN(C)CC2)c(F)cc1Nc1ncc(C(F)(F)F)c(Oc2cccc3c2C(=O)N(C)C32CC2)n1` strictly below 70%?
MET

Is TGI(%) of `COc1cc(N2CCN(C)CC2)ccc1Nc1ncc(C(F)(F)F)c(Oc2cccc3c2C(=O)N(C)C32CC2)n1` strictly below 70%?
NOT MET

Is TGI(%) of `COc1cc(N2CC3(CCN(C)CC3)C2)ccc1Nc1ncc(Cl)c(Oc2cccc3c2C(=O)N(C)C32CC2)n1` strictly below 70%?
NOT MET

---

TARGET OR SYSTEM: FAK recombinant protein (Homo sapiens (Human))
ASSAY EXPLANATION: Inhibitory activity against FAK enzyme (HTRF, TK substrate)
Procedure: A compound serially diluted with DMSO was mixed with a FAK recombinant protein. After the mixture was left to stand at room temperature for 10 min, a biotin-labeled TK substrate (TK) and ATP were added. […] The inhibition percentage and IC50 of the compound were calculated compared to the DMSO control group.
IC50 values, listed per item

// solved cases for IC50 follow
COc1cc(N2CCOCC2)ccc1Nc1ncc(C(F)(F)F)c(Oc2cccc3c2C(=O)N(C)C32CC2)n1 : < 20 nM
COc1cc(C(=O)NC2CC3(CCNCC3)C2)ccc1Nc1ncc(C(F)(F)F)c(Oc2cccc3c2C(=O)N(C)C32CC2)n1 : < 20 nM
[2H]C([2H])([2H])N1CCC2(CC1)CC(NC(=O)c1cc(OC)c(Nc3ncc(C(F)(F)F)c(Oc4cccc5c4C(=O)N(C)C54CC4)n3)cc1F)C2 : < 20 nM
COc1cc(N2CCC(N(C)C)CC2)c(F)cc1Nc1ncc(Cl)c(Oc2cccc3c2C(=O)N(C)C32CC2)n1 : < 20 nM

Param item = `CCc1cc(C(=O)NC2CCN(C)CC2)ccc1Nc1ncc(C(F)(F)F)c(Oc2cccc3c2C(=O)N(C)C32CC2)n1` ; retrieve measured IC50.
< 20 nM

Param item = COc1cc(N2CCC3CN(C)CC32)ccc1Nc1ncc(Cl)c(Oc2cccc3c2C(=O)N(C)C32CC2)n1 (centres unmarked) ; retrieve measured IC50.
< 20 nM

Param item = COc1cc(C(=O)NC2CCC3(CC2)CCN(C)C3)ccc1Nc1ncc(C(F)(F)F)c(Oc2cccc3c2C(=O)N(C)C32CC2)n1 (centres unmarked) ; retrieve measured IC50.
< 20 nM

Param item = COc1cc(C(=O)NC2COC3(CCN(C)CC3)C2)ccc1Nc1ncc(C(F)(F)F)c(Oc2cccc3c2C(=O)N(C)C32CC2)n1 (centres unmarked) ; retrieve measured IC50.
< 20 nM

Param item = `COc1cc(N2CC3(CCC2=O)CCN(C)CC3)ccc1Nc1ncc(C(F)(F)F)c(Oc2cccc3c2C(=O)N(C)C32CC2)n1` ; retrieve measured IC50.
< 20 nM

Param item = COc1cc(N2CC3(CCN(C)C3)OCC2=O)ccc1Nc1ncc(C(F)(F)F)c(Oc2cccc3c2C(=O)N(C)C32CC2)n1 (centres unmarked) ; retrieve measured IC50.
< 20 nM

Param item = `CN1C(=O)c2c(Oc3nc(Nc4cnn5c4COCC5)ncc3C(F)(F)F)cccc2C12CC2` ; retrieve measured IC50.
< 20 nM

Param item = `Cc1c(Nc2ncc(C(F)(F)F)c(Oc3cccc4c3C(=O)N(C)C43CC3)n2)nn2c1CCC2` ; retrieve measured IC50.
< 20 nM

Param item = COc1cc(C(=O)NC2CCC3(CCN(C)C3)C2)c(F)cc1Nc1ncc(C(F)(F)F)c(Oc2cccc3c2C(=O)N(C)C32CC2)n1 (centres unmarked) ; retrieve measured IC50.
< 20 nM

Param item = COc1cc(C(=O)NC2CCC3(CCN(C)CC3)C2)c(F)cc1Nc1ncc(C(F)(F)F)c(Oc2cccc3c2C(=O)N(C)C32CC2)n1 (centres unmarked) ; retrieve measured IC50.
< 20 nM
